- measured on: gp120 of viral strain SHIV162p3 (SHIV162p3)
- assay details: cell-based or functional assay
*1 amine or outer side, *2 acyl side, *3 side chain or, on linkers, in order; H or OH if unused. [ ]: non-standard residue; d: D form. U1 = 4-cyclohexylmethoxy-L-phenylalanine, O=C([C@H](Cc1ccc(OCC2CCCCC2)cc1)N[*:1])[*:2]; Bip = N[C@@H](Cc1ccc(-c2ccccc2)cc1)C(=O)O; Tpa = thiopropionic acid
measured parameter: EC50 (antiviral activity, TZM-bl cells, luciferase) (µM)
Provide the reading as a plain figure in µM.

Query: Supply measured EC50 (antiviral activity, TZM-bl cells, luciferase) of Tpa-NLHKCQLRCSSLGLLGRCAGS[Bip]CACV-NH2 (disulfide (positions not given here); also: three disulphide bridges, pairing not given here) [mCD4.1] in your reply.
Result: 5.37

Query: Supply measured EC50 (antiviral activity, TZM-bl cells, luciferase) of Tpa-NLHKCQLRCSSLGLLGRCA[dP]T[U1]CACV-NH2 (disulfide (positions not given here)) [mCD4.2] in your reply.
Result: 0.069

Query: Supply measured EC50 (antiviral activity, TZM-bl cells, luciferase) of mCD4.3-PS1 (not fully specified; N-terminal gamma-aminobutyric acid (gammaAbu) acylated with 3-thiopropionyl (from SATP); all six Tyr are sulfotyrosine (YSO3); N-terminal Tpa; D-proline at position 21; U1 (4-cyclohexylmethoxy-L-phenylalanine) at position 23; C-terminal amide; Lys5 N-epsilon carries the PEO2-maleimide linker bound to the thiol of the PS1 chain) peptide 1: NLHKCQLRCRSLGLLGRCAPTFCACV peptide 2: SYDYSYDYSYDYS in your reply.
Result: 0.0014

Query: Supply measured EC50 (antiviral activity, TZM-bl cells, luciferase) of mCD4.1-PS1 (N-terminal gamma-aminobutyric acid (gammaAbu) acylated with 3-thiopropionyl (from SATP); all six Tyr are sulfotyrosine (YSO3); N-terminal Tpa (thiopropionic acid); Bip at position 23; C-terminal …; Lys5 N-epsilon carries the PEO2-maleimide linker bound to the thiol of the PS1 chain) peptide 1: NLHKCQLRCSSLGLLGRCAGSFCACV peptide 2: SYDYSYDYSYDYS in your reply.
Result: 0.036

Query: Supply measured EC50 (antiviral activity, TZM-bl cells, luciferase) of M48U1-PS1 (not fully specified; N-terminal gamma-aminobutyric acid (gammaAbu) acylated with 3-thiopropionyl (from SATP); all six Tyr are sulfotyrosine (YSO3); N-terminal Tpa; D-proline at position 21; U1 (4-cyclohexylmethoxy-L-phenylalanine) at position 23; C-terminal amide; Lys11 N-epsilon carries the PEO2-maleimide linker bound to the thiol of the PS1 chain) peptide 1: NLHFCQLRCKSLGLLGRCAPTFCACV peptide 2: SYDYSYDYSYDYS in your reply.
Result: 0.0034

Query: Supply measured EC50 (antiviral activity, TZM-bl cells, luciferase) of Tpa-NLHFCQLRCKSLGLLGRCA[dP]T[U1]CACV-NH2 (disulfide (positions not given here)) [M48U1] in your reply.
Result: 0.024

Query: Supply measured EC50 (antiviral activity, TZM-bl cells, luciferase) of mCD4.2-PS1 (not fully specified; N-terminal gamma-aminobutyric acid (gammaAbu) acylated with 3-thiopropionyl (from SATP); all six Tyr are sulfotyrosine (YSO3); N-terminal Tpa; D-proline at position 21; U1 (4-cyclohexylmethoxy-L-phenylalanine) at position 23; C-terminal amide; Lys5 N-epsilon carries the PEO2-maleimide linker bound to the thiol of the PS1 chain) peptide 1: NLHKCQLRCSSLGLLGRCAPTFCACV peptide 2: SYDYSYDYSYDYS in your reply.
Result: 0.0022

Query: Supply measured EC50 (antiviral activity, TZM-bl cells, luciferase) of Tpa-NLHKCQLRCRSLGLLGRCA[dP]T[U1]CACV-NH2 (disulfide (positions not given here)) [mCD4.3] in your reply.
Result: 0.029
